Values were extracted from paper PMC4552634.

- System: P. falciparum stage V gametocytes
- Set-up: BacTiter-Glo ATP luminescence viability of purified stage V gametocytes in 384-well plates, per cent inhibition versus DMSO
- run conditions: 48 h, 5 µM; inhibitor
The campaign covered roughly 13,000 compounds. About 3,200 (25%) showed an effect of 50% or more. The list shows a part of the results.
quantity measured: % Inhibition (%)
Answer with a number only, understood to be in %.

>>> measured_number("CCc1c[nH]c2c(N3CCCC3=O)cc(C(=O)N[C@@H](Cc3ccccc3)[C@H](O)CNC3CCCCC3)cc12")
43.33
>>> measured_number("CCc1c[nH]c2c(N3CCCCC3=O)cc(C(=O)N[C@@H](Cc3ccccc3)[C@H](O)CNCc3cccc(OC)c3)cc12")
3.442
>>> measured_number("Cc1[nH]c(C)c(-c2ccc(-c3cccc(C(F)(F)F)c3)nc2)c(=O)c1Br")
22.21

Noted % Inhibition for "Cc1[nH]c(C)c(-c2ccc(-c3cc(C(F)(F)F)cc(C(F)(F)F)c3)nc2)c(=O)c1Br" , tested on P. falciparum stage V gametocytes: 76.88

* * *

- Tested on: P. falciparum stage V gametocytes
- Set-up: BacTiter-Glo ATP luminescence viability of purified stage V gametocytes in 384-well plates, per cent inhibition versus DMSO
- run conditions: 48 h, 5 µM; inhibitor
The whole screen tested about 13,000 compounds, of which about 3,200 (25%) showed an effect of 50% or more. Some of the results follow.
quantity measured: % Inhibition (%)
Answer with a number only, understood to be in %.

Below, each entry is followed by its recorded % Inhibition result.
>>> measured_number("CN1CCC(Oc2cc(NC(=O)Nc3ccc(-c4ccncc4)c(C(F)(F)F)c3)ccc2Cl)CC1")
-12.77
>>> measured_number("CC(C)NCc1ccc(-c2cccc(-c3nc4ccc(C(F)(F)F)cc4[nH]3)c2)cc1")
37.23
>>> measured_number("CN1CCN(c2ccnc3ccc(NC(=O)Nc4cccc5ccccc45)cc23)CC1")
6.615

# evaluate next
// sample "FC(F)(F)c1ccc2[nH]c(-c3ccc(-c4ccc(CNCc5cnn(-c6ccccc6)n5)cc4)cc3)nc2c1.O=C(O)C(F)(F)F" , its % Inhibition was -15.1

* * *

- System: P. falciparum stage V gametocytes
- Parameters: BacTiter-Glo ATP luminescence viability of purified stage V gametocytes in 384-well plates, per cent inhibition versus DMSO
- run conditions: 48 h, 5 µM; inhibitor
In all, about 13,000 compounds went through this assay and about 3,200 (25%) showed an effect of 50% or more. The list shows a part of the results.
Below, each entry is listed with its recorded % Inhibition.
Answer with a number only, understood to be in %.

>>> measured_number("FC(F)(F)Oc1ccc(-c2cnc3ccc(NCc4ccncc4)nn23)cc1 [TCMDC-136681]")
34.75
>>> measured_number("Cn1cnc2nc(NCCc3ccccc3)nc(NCc3cccc4ccccc34)c21 [TCMDC-131862]")
52.06
>>> measured_number("CC(C)C[C@@H](CNC[C@H](CC(C)C)NC(=O)OC(C)(C)C)NC(=O)OC(C)(C)C [TCMDC-132080]")
-74.95

# evaluate next
// sample c1ccc2c(CNc3nc(NCC4CCCCC4)nc4nc[nH]c34)cccc2c1 [TCMDC-131860] , its % Inhibition was -36.72
